Origin of values: patent US20140142094A1

target: ABL1 (G250E) (Homo sapiens, UniProt P00519, G250E); experiment: Inhibition of ABL mutants; conditions: 10 μM ATP; 5-dose IC50 mode
pIC50: −log10 of the molar value.
PROPERTY NAME: pIC50

[[record]]
substance_smiles = "CN1CCN(c2ccc(Nc3ncc4c(n3)S/C(=C/c3ccc([N+](=O)[O-])cc3)C(=O)N4)cc2)CC1"
value_observed = 7.46


---

biological target: UniProt P48736
Sequence (P48736 whole entry): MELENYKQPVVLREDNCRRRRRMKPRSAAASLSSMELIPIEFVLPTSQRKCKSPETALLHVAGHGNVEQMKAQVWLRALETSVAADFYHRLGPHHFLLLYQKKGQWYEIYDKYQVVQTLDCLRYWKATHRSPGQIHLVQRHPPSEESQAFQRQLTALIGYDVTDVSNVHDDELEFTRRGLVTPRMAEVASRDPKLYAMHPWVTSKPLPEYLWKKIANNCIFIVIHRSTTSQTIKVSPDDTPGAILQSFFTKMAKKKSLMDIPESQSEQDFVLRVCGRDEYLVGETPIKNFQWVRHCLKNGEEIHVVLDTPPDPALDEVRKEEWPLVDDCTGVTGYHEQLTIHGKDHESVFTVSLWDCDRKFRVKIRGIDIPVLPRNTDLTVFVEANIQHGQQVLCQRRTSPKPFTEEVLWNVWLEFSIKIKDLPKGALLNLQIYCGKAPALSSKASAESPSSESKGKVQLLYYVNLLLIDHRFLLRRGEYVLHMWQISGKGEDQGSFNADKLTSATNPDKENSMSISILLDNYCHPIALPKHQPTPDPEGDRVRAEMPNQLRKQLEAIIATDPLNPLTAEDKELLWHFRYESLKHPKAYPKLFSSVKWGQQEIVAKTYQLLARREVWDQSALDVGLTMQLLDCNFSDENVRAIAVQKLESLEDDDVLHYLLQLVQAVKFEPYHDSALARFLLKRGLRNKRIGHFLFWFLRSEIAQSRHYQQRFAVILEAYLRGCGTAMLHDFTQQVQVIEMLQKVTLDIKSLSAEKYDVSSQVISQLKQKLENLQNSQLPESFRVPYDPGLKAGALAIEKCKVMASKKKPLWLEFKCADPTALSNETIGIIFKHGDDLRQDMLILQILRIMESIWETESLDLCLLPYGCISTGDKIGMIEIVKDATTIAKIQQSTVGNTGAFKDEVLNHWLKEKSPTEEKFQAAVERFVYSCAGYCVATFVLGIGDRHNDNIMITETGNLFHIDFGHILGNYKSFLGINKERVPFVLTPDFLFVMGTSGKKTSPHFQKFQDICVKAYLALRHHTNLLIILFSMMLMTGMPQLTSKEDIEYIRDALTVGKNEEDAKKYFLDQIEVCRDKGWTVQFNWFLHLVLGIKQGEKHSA
PROPERTY NAME: IC50 (nM)

[[record]]
compound = "CN1CCN(c2ccc(Nc3ncc4c(n3)S/C(=C/c3ccc([N+](=O)[O-])cc3)C(=O)N4)cc2)CC1 [Compound 1b]"
property_name = "IC50"
unit_of_measure = "nM"
value_observed = 22


---

biological target: FGR (Homo sapiens, UniProt P09769)
Sequence (P09769 whole entry): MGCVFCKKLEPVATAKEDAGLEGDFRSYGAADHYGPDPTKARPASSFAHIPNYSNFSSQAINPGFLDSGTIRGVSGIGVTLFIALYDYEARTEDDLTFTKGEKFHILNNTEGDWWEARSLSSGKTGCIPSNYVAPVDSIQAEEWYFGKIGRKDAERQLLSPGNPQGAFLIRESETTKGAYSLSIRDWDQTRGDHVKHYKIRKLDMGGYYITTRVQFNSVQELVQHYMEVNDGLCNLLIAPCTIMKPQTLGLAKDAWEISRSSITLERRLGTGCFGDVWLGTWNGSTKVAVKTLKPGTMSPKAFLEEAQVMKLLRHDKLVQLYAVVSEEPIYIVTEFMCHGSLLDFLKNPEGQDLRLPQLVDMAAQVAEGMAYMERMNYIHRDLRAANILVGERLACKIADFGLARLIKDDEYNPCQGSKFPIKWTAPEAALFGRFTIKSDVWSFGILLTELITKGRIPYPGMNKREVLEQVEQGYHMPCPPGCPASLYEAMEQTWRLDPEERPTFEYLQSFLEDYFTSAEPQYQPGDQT
PROPERTY NAME: IC50 (nM)

[[record]]
substance_smiles = "CN1CCN(c2ccc(Nc3ncc4c(n3)S/C(=C/c3ccc([N+](=O)[O-])cc3)C(=O)N4)cc2)CC1"
value_observed = 124


---

biological target: ABL1 (Y253F) (Homo sapiens, UniProt P00519, Y253F); construct: purchased Reaction Biology Corporation; assay: Inhibition of ABL mutants; assay type: biochemical; conditions: 10 μM ATP; 5-dose IC50 mode
PROPERTY NAME: IC50 (nM)

[[record]]
substance_smiles = "CN1CCN(c2ccc(Nc3ncc4c(n3)S/C(=C/c3ccc([N+](=O)[O-])cc3)C(=O)N4)cc2)CC1"
property_name = "IC50"
value_observed = 60


---

target: RPIK2 (Homo sapiens, UniProt O43353); construct: purchased Reaction Biology Corporation; assay: Kinase inhibition assay (Reaction Biology); assay type: biochemical; settings: 10 μM ATP; 5-dose IC50 mode
Sequence (O43353 whole entry): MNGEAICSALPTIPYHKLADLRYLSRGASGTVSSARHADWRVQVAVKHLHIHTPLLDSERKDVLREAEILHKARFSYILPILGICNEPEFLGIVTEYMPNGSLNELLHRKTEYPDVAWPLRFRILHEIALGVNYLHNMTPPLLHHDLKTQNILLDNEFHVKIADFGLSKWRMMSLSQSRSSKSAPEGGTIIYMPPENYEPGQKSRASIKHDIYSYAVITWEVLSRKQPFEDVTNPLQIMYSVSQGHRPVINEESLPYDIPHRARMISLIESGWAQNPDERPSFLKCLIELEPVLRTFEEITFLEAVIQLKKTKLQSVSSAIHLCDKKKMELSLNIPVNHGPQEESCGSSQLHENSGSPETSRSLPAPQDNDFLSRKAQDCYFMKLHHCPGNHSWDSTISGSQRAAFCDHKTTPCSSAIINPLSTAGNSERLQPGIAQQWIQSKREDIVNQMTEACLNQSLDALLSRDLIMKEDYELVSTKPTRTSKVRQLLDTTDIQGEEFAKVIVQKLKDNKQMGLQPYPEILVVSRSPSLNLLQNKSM
pIC50: −log10 of the molar value.
PROPERTY NAME: pIC50

[[record]]
molecule = "CN1CCN(c2ccc(Nc3ncc4c(n3)S/C(=C/c3ccc([N+](=O)[O-])cc3)C(=O)N4)cc2)CC1 [Compound 1b]"
target_under_test = "RPIK2 (Homo sapiens, UniProt O43353)"
value_observed = 7.17


---

target: UniProt:P42336
Sequence (P42336 whole entry): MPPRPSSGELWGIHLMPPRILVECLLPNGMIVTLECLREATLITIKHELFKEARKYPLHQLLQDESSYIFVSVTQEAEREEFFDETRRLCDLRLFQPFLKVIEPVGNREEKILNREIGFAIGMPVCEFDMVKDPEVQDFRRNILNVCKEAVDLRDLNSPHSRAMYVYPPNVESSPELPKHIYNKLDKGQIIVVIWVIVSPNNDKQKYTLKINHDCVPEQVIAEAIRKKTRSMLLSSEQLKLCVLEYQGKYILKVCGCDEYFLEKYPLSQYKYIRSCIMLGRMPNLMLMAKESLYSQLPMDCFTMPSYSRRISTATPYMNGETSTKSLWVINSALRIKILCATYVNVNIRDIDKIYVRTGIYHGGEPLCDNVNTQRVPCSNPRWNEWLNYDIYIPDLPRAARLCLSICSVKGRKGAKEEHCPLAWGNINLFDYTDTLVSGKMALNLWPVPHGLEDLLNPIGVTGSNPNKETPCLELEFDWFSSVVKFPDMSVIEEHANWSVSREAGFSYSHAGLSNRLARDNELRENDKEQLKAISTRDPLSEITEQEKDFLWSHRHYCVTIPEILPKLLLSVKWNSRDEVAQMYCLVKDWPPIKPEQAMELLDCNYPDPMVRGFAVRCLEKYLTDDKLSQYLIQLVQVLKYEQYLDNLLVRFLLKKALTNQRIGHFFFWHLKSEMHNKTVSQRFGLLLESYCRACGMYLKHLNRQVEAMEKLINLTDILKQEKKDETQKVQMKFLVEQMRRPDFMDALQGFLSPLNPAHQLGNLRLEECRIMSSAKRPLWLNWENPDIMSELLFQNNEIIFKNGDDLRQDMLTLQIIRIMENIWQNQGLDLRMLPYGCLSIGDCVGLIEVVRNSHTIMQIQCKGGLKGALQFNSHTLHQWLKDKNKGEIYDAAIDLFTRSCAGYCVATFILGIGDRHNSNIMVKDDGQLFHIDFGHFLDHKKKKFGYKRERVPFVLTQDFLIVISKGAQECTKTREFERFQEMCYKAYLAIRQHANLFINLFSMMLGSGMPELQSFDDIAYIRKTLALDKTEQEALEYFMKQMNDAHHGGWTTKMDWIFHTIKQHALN
Sequence (P27986 whole entry partner): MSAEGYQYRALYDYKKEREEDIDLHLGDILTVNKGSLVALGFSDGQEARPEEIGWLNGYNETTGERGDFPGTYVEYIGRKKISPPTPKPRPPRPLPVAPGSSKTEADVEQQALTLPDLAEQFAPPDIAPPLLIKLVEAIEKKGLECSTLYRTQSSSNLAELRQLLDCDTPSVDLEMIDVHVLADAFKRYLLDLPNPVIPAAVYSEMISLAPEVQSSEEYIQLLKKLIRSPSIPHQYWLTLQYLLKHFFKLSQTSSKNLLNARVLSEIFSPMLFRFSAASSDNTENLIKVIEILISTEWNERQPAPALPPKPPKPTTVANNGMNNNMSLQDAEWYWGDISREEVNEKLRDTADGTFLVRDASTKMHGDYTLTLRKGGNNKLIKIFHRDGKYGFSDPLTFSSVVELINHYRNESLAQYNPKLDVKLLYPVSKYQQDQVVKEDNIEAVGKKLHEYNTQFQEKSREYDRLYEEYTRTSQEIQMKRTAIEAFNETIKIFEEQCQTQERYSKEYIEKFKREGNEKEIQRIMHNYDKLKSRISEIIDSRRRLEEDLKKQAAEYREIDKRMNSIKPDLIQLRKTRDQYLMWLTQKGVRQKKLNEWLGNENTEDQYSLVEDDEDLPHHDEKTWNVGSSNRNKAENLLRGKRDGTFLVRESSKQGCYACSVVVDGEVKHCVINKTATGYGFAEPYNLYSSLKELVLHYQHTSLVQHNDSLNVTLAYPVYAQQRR
pIC50: −log10 of the molar value.
PROPERTY NAME: pIC50

[[record]]
molecule = "CN1CCN(c2ccc(Nc3ncc4c(n3)S/C(=C/c3ccc([N+](=O)[O-])cc3)C(=O)N4)cc2)CC1 [Compound 1b]"
target_under_test = "UniProt:P42336"
value_observed = 8.40


---

target: ABL1 (Homo sapiens, UniProt P00519)
PROPERTY NAME: IC50 (µM)

[[record]]
substance_smiles = "CN1CCN(c2ccc(Nc3ncc4c(n3)S/C(=C/c3ccc([N+](=O)[O-])cc3)C(=O)N4)cc2)CC1"
property_name = "IC50"
unit_of_measure = "µM"
value_observed = 0.019


---

target: ABL1 (H396P) (Homo sapiens, UniProt P00519, H396P); test: Inhibition of ABL mutants; conditions: 10 μM ATP; 5-dose IC50 mode
PROPERTY NAME: IC50 (nM)

[[record]]
substance_smiles = "CN1CCN(c2ccc(Nc3ncc4c(n3)S/C(=C/c3ccc([N+](=O)[O-])cc3)C(=O)N4)cc2)CC1"
value_observed = 9


---

molecular target: UniProt:P42338
Sequence (P42338 whole entry): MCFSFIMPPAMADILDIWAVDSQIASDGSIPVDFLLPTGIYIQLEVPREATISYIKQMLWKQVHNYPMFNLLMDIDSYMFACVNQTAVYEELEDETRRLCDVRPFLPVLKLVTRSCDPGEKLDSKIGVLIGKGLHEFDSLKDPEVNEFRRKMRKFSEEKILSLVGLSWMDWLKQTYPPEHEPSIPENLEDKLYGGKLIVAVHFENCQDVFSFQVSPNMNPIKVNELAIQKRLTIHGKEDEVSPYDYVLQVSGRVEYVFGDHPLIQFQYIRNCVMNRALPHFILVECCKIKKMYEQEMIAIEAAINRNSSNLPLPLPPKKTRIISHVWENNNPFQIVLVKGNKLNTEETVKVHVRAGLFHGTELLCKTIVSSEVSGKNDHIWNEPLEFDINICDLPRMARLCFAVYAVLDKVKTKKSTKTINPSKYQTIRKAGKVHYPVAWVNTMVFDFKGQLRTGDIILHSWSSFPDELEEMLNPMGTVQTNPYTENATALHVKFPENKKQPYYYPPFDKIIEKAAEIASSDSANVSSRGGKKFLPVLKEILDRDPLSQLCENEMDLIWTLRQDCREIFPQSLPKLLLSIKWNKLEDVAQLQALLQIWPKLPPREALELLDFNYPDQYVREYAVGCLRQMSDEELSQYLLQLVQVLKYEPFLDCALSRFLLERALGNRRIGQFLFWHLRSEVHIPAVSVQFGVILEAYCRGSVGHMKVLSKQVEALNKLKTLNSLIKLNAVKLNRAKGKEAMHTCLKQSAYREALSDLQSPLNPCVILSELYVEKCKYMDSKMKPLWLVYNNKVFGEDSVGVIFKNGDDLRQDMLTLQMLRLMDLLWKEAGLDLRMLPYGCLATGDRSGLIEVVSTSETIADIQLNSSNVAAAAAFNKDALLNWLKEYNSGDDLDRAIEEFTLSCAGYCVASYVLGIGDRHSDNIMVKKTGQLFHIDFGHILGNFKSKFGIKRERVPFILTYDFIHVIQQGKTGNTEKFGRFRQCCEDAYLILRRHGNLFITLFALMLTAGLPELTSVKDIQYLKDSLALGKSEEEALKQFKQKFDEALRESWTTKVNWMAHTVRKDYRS
Sequence (P27986 whole entry partner): as the sequence (P27986 whole entry partner) above
pIC50: −log10 of the molar value.
PROPERTY NAME: pIC50

[[record]]
substance_smiles = "CN1CCN(c2ccc(Nc3ncc4c(n3)S/C(=C/c3ccc([N+](=O)[O-])cc3)C(=O)N4)cc2)CC1"
property_name = "pIC50"
value_observed = 8.00


---

PROPERTY NAME: melting point

[[record]]
substance_smiles = "CN1CCN(c2ccc(Nc3ncc4c(n3)S/C(=C/c3ccc(O)cc3)C(=O)N4)cc2)CC1"
value_observed = "312 to 314 °C"

[[record]]
substance_smiles = "O=C1Nc2cnc(Nc3ccc(N4CCOCC4)cc3)nc2S/C1=C/c1ccc([N+](=O)[O-])cc1"
value_observed = "302 to 304 °C"

[[record]]
substance_smiles = "CC(=O)N(c1ccc(N2CCN(C)CC2)cc1)c1ncc2c(n1)S/C(=C/c1ccc(C(=O)O)cc1)C(=O)N2"
value_observed = "326 to 330 °C"

[[record]]
substance_smiles = "CN1CCN(c2ccc(Nc3ncc4c(n3)S/C(=C/c3ccc(C#N)cc3)C(=O)N4)cc2)CC1"
value_observed = "274 to 276 °C"

[[record]]
substance_smiles = "O=C1CSc2nc(SCc3c(Cl)cccc3Cl)ncc2N1"
value_observed = "242 to 244 °C"

[[record]]
substance_smiles = "CN1CCN(c2ccc(Nc3ncc4c(n3)S/C(=C/c3ccc(OCc5ccccc5)cc3)C(=O)N4)cc2)CC1"
value_observed = "238 to 240 °C"

[[record]]
substance_smiles = "CN1CCN(c2ccc(Nc3ncc4c(n3)S/C(=C/c3ccc(C(N)=O)cc3)C(=O)N4)cc2)CC1"
value_observed = "294 to 298 °C"


---

Biological target: ABL1 (E255K) (Homo sapiens, UniProt P00519, E255K)
Assay: Inhibition of ABL mutants
Conditions: 10 μM ATP; 5-dose IC50 mode
Method: Kinase assays were performed at Reaction Biology Corporation. To a freshly prepared buffer solution was added the target kinase at a concentration of 20 μM. The contents were mixed gently, and then compound 1b dissolved in DMSO was added to the reaction mixture in the appropriate concentration. The mixture was incubated at room temperature for 30 min. prior to addition of ATP to initiate the reaction. Compound 1b was tested in a 5-dose IC50 mode with 10-fold serial dilutions starting at 10 μM. […]
PROPERTY NAME: IC50 (nM)

[[record]]
substance_smiles = "CN1CCN(c2ccc(Nc3ncc4c(n3)S/C(=C/c3ccc([N+](=O)[O-])cc3)C(=O)N4)cc2)CC1"
unit_of_measure = "nM"
value_observed = 106

